- Measured On: T1, alpha-s1 casein from Bos taurus
- T1 chain: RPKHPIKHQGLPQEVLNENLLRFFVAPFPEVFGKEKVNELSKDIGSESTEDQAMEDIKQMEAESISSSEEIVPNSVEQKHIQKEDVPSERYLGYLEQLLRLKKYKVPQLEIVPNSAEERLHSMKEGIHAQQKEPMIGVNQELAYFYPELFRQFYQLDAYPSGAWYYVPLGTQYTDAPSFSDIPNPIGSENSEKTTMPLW

Protein | Value Units | αs1 CN, 24 hours, 11° C.
camel chymosin variant #148 (Q288N) (protein) GKVAREPLTSYLDSQYFGKIYIGTPPQEFTVVFDTGSSDLWVPSIYCKSNVCKNHHRFDPRKSSTFRNLGKPLSIHYGTGSMEGFLGYDTVTVSNIVDPNQTVGLSTEQPGEVFTYSEFDGILGLAYPSLASEYSVPVFDNMMDRHLVARDLFSVYMDRNGQGSMLTLGAIDPSYYTGSLHWVPVTLQQYWQFTVDSVTINGVAVACVGGCQAILDTGTSVLFGPSSDILKIQMAIGATENRYGEFDVNCGNLRSMPTVVFEINGRDYPLSPSAYTSKDQGFCTSGFNGDNNSELWILGDVFIREYYSVFDRANNRVGLAKAI | Volume | 2.03e+07
